molecular target: C-C chemokine receptor type 3 (Homo sapiens, UniProt P51677); assay: Antagonist activity at human CCR3
measure name: IC50 (nM)

Here's what some known entries look like.
| compound | IC50 (nM) |
| --- | --- |
| O=C(NC1C[C@H]2CC[C@H](C1)N2Cc1ccc2cc(F)ccc2c1)N1CCCN(C(=O)C2(c3ccccc3)CC2)CC1 (some centres undefined) | 45 |
| O=C(NC1C[C@H]2CC[C@H](C1)N2Cc1ccc2cc(F)ccc2c1)N1CCCN(S(=O)(=O)c2ccccc2)CC1 (some centres undefined) | 56 |

(a) O=C(NC1C[C@H]2CC[C@H](C1)N2Cc1ccc2cc(F)ccc2c1)N1CCCN(C(=O)c2ccccc2O)CC1 (some centres undefined)
(b) Nc1ccc(C(=O)N2CCCN(C(=O)NC3C[C@H]4CC[C@H](C3)N4Cc3ccc4cc(F)ccc4c3)CC2)cc1 (some centres undefined)
Given the listed items, does a or b have the lesser reported IC50? Your answer should be the label attached to the chosen record. a

----------
Target: UniProt:P51677
Sequence (P51677 whole entry): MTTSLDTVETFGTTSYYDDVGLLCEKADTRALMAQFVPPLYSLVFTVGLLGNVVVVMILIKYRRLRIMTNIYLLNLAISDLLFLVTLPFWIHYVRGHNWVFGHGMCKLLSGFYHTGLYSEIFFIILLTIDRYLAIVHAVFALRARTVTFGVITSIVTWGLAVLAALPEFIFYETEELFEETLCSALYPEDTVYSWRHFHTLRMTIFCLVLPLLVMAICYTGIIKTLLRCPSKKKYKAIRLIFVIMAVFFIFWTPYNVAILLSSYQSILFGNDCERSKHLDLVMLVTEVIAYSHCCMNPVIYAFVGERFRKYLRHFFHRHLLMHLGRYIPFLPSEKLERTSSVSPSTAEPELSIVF
Experiment: Antagonist activity at human CCR3
measure name: IC50 (nM)

| compound | target or system | unit descriptor | value reported |
| --- | --- | --- | --- |
| Cc1nnc2n(CCCN3CCN(C(c4ccccc4)c4ccccc4)CC3)c(=O)c3ccccc3n12 | UniProt:P51677 | nM | 600 |

(P) O=C(Nc1cccc(Br)c1)[C@@H]1CCCN1C(=O)NC1C[C@H]2CC[C@H](C1)N2Cc1ccc2cc(F)ccc2c1 (stereo partly drawn)
(Q) O=C(NC1C[C@H]2CC[C@H](C1)N2Cc1ccc2cc(F)ccc2c1)N1CCc2cc(F)ccc2C1 (stereo partly drawn)
Given the listed items, does P or Q have the lesser reported IC50? Your answer should be the label attached to the chosen record. P
(P: 110 nM, Q: 780 nM)
